Sourced from BindingDB's records for patent US20250289799

Consider the following compounds and their measured pIC50 readings.
# Tgt: Ubiquitin carboxyl-terminal hydrolase 1/WD repeat-containing protein 48 (Homo sapiens, UniProt O94782+Q8TAF3)
# Sequence (O94782 whole entry): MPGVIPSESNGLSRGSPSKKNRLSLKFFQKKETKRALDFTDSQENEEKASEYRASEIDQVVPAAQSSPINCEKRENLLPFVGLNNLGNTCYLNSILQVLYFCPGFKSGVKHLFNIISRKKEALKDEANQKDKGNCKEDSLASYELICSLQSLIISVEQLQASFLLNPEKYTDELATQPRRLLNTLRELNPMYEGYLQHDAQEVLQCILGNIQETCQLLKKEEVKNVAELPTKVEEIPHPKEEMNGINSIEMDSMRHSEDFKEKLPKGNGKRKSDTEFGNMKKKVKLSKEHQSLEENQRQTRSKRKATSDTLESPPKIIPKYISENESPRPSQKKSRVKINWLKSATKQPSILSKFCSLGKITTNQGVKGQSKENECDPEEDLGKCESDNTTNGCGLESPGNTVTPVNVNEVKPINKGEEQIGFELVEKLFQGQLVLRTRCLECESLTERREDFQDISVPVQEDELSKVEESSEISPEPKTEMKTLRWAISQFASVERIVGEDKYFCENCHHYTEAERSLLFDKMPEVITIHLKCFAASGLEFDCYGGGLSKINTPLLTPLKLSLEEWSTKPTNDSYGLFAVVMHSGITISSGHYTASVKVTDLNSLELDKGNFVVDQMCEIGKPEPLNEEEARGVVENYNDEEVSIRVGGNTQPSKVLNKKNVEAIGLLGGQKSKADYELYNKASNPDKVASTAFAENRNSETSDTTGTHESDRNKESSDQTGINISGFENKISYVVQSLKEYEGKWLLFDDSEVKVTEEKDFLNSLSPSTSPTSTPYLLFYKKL
# Sequence (Q8TAF3 whole entry): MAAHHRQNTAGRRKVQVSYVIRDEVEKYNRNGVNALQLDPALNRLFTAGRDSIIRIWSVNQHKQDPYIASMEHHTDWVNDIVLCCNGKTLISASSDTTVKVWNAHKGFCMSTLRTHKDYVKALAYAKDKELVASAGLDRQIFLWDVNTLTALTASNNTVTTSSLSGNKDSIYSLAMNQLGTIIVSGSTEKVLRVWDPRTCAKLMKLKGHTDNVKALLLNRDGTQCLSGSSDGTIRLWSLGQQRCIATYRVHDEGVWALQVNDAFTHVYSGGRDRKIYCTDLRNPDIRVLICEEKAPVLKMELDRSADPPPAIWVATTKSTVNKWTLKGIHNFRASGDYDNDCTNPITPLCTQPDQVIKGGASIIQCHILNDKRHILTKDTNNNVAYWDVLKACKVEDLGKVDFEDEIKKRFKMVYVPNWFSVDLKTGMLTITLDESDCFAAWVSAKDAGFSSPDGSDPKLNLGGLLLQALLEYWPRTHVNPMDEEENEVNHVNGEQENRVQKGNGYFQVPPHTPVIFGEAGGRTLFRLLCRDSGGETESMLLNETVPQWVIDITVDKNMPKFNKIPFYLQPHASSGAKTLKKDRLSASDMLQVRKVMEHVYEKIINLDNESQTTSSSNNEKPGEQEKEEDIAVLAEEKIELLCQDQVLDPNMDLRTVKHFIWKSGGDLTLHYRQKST
# Assay Overview: In Vitro USP1  Inhibitory Activity
Reminder that pIC50 is minus the log10 of a molar concentration.

| Compound | pIC50 |
| --- | --- |
| COc1cnc(-c2ccccc2N(C)C)nc1NCc1ccc(-n2nc(C(F)(F)F)cc2C)cc1 [US20250289799, Example 160] | 8.44 |
| COc1cnc(-c2c(C)cnn2C(C)C)nc1NCc1ccc(-c2nc(C(F)(F)F)cn2C)cc1 [US20250289799, Example 202] | 8.52 |

We now examine a further compound.
Reported pIC50 for COc1cnc(-c2c(C)cnn2C(C)C)nc1N(C)Cc1ccc(-c2nc(C(F)(F)F)cn2C)cc1 [US20250289799, Example 200] was 8.55

* * *

# Tgt: Ubiquitin carboxyl-terminal hydrolase 1/WD repeat-containing protein 48 (Homo sapiens, UniProt O94782+Q8TAF3)
# Assay Overview: In Vitro USP1  Inhibitory Activity
Endpoint: IC50

Some entries whose results are on file:
| Compound | IC50 |
| --- | --- |
| COCc1cnc(-c2c(OC)ncnc2C2CC2)nc1N(C)Cc1ccc(-c2nc(C(F)(F)F)cn2C(C)C)cc1 [US20250289799, Example 138] | 9 nM |
| COc1cc(CNc2nc(-c3ccccc3C(C)C)nc3ccoc23)ccc1-n1nc(C(F)(F)F)cc1C [US20250289799, Example 84] | 9 nM |
| COc1cnc(-c2ccccc2C(C)C)nc1N(C)CC1CCN(c2ccccn2)CC1 [US20250289799, Example 2] | 14 nM |
| COc1cnn(C2CC2)c1-c1ncc(OC(F)F)c(NCc2ccc(-c3nc(C(F)(F)F)cn3C)cc2)n1 [US20250289799, Example 185] | 9.8 nM |
| COc1cc(CNc2nc(-c3ccccc3C(C)C)ncc2OC)ccc1-n1nc(C(F)(F)F)cc1C [US20250289799, Example 69] | 9.2 nM |
| COc1cnc(-c2c(C)cnn2C(C)C)nc1N(C)Cc1ccc(-n2nc(C(F)(F)F)cc2C)cc1 [US20250289799, Example 201] | 12 nM |
| COc1ncnc(C2CC2)c1-c1ncc(OC(F)F)c(NCC2CCN(c3nc(C(F)(F)F)cn3C)CC2)n1 [US20250289799, Example 133] | 15 nM |

We now examine a further compound.
Reported IC50 for Cn1cc(C(F)(F)F)nc1-c1ccc(CNc2nc(-c3cncnc3C3CC3)nc3ccoc23)cc1 [US20250289799, Example 196] was 12 nM
